Would you kindly list protein stability index for each of these sequences?
assay: protein stability index of a GFP-peptide fusion (GPS, HEK-293T) (PSI 1-6); higher = more stable; conditions: treatment: MLN4924 1 uM, 8 h; c terminus: a fixed tail appended;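 also: 24-mer peptide tiles fused after GFP, lentivirally expressed, FACS-sorted into six equal bins by GFP/DsRed ratio, decoded by Illumina sequencing, PSI is the read-weighted mean bin number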
Write the value as a bare number.

For the sequence SFFYPVLFVLFMFFGMAFNFIVND [SOAT1] , what protein stability index is on record?
1.96

Note, next up: RVGQWVRMENVTVLGEDVIVNDEL [GMPPB]
4.07

Note, next up: DSSEEESHRVVLRPRGKERHKSGV [LYSMD4]
5.14

Note, next up: GYVPSNYVERKNSLKKGSLVKNLK [NCK2]
3.89

Note, next up: QLRNVRERLAKNLVEKGVLTTEKQ [GOLPH3]
3.84

Note, next up: RGPSPVVLGSQDALPIATAFTEYV [FCHO1]
3.18

Note, next up: EGGIFTSPNYPSKYPPDRECIYII [NETO1]
2.95

Note, next up: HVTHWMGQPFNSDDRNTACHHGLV [DLC1]
2.92

Note, next up: MTTLTHRARRTEISKNSEKKMESE [GOLPH3L]
5.07

Note, next up: LFEEPEDPSNRSFFSEIISSVSDV [PPP2R2C]
4.19

Note, next up: ETNLLLAQKQRLERALDATEVPFS [TEKT4]
4.21

Note, next up: HLARHAVACFLTRGDLWISWEEGM [CRY1]
2.98

Note, next up: DVVEDYKKRYEEEINKRTAAENEF [KRT71]
5.37

Note, next up: IEMFKSITHSTVGSKGEKDLGASS [EHMT1]
3.85

Note, next up: EALITDPDEMRMQALLIRERILGP [FEM1A]
3.45

Note, next up: DTTELSSAERYNPRTNQWSPVVAM [KLHL20]
3.7

Note, next up: VRLHDSISEEGHHYLIFDLVTGGE [CAMK2A]
2.26

Note, next up: VEVDTAPTVDLNQVLNETRSQYEA [KRT34]
5

Note, next up: SSENFDDYMKEVGVGFATRKVAGM [FABP4]
3.55

Note, next up: TSSQKALMLELKSLQEEPVEGFRI [UBE2R2]
3.3

Note, next up: VVGDNAVGKTRLICARACNTTLTQ [RHOBTB1]
2.73

Note, next up: TENEEQTQLTQNAVSCPYLPSNLL [KCNA4]
4.63

Note, next up: WLSTAPTEPLTHWYQVRCLFQSPL [CARM1]
2.19

Note, next up: SLEISPQNVDVNVHPTKHEVHFLH [MLH1]
3.63

Note, next up: PEAKVLHTKRLYRAVVEAVHRLDL [SMG5]
2.17

Note, next up: KLEPMETERSPGPRLQELLGPSPQ [ZNF263]
4.52

Note, next up: VEFVRHGDIIRLEHKETSRNLHSH [POMT2]
3.04
